tested on: serotonin uptake by human blood platelets; test: Inhibition of serotonin uptake in human blood platelets; format: cell-based; conditions: Platelet; human blood platelets; dose reducing the rate of serotonin uptake by 50%; read-out: Inhibition of serotonin uptake I50
experimental.endpoint: pIC50
// pIC50 is dimensionless: -log10 of concentration (M)

Req: So what's the measured pIC50 for this one? c1ccc2c(CCC3CCNCC3)c[nH]c2c1 [Indalpine, 3-[2-(4-piperidyl)-ethyl]-indole]
Resp: 7.46

* * *

Kindly supply the reported activation at 50 µM values for the records listed here.
System: serotonin release, human blood platelets
Experiment: Serotonin release from human blood platelets
Assay type: cell-based
Conditions: Platelet; product concentration 5 × 10^-5 moles per liter; increase relative to controls; human blood platelets; read-out: Percent of increased serotonin release
Procedure: "Platelets Function and Thrombosis, a Review of Methods" p. The action of the products on serotonin release is tested at a concentration of 5×10^-5 moles per liter.
Respond with the bare value in %.

Req: So what's the measured activation at 50 µM for this one? CC(CC1CCNCC1)c1c[nH]c2ccccc12 (stereo not shown)
Resp: 62

Req: So what's the measured activation at 50 µM for this one? c1ccc2c(CCC3CCNCC3)c[nH]c2c1 [Indalpine, 3-[2-(4-piperidyl)-ethyl]-indole]
Resp: 22

Req: So what's the measured activation at 50 µM for this one? `CN(C)CCCN1c2ccccc2CCc2ccccc21`
Resp: 12

Req: So what's the measured activation at 50 µM for this one? CC(N)Cc1ccc(Cl)cc1 (stereo not shown)
Resp: 51

Numbers sourced from patent US4416888A.
